- Test system: NCI-H2087
- procedure.details: relative viability (nuclei count vs DMSO), 5 days (fraction); higher = more cells survive
- condition.context: first compound 4 µM
metric.name: relative viability

Below are worked cases with known answers.
Cc1sc2c(c1C)C(c1ccc(Cl)cc1)=N[C@@H](CC(=O)OC(C)(C)C)c1nnc(C)n1-2 [JQ1] + N=C(N)NC(=N)NCCc1ccccc1 [Phenformin] (partner 250 µM)	0.273
Cc1sc2c(c1C)C(c1ccc(Cl)cc1)=N[C@@H](CC(=O)OC(C)(C)C)c1nnc(C)n1-2 [JQ1] + O=C(CCCCCCC(=O)Nc1ccccc1)NO [Vorinostat] (partner 1 µM)	0.127
Cc1sc2c(c1C)C(c1ccc(Cl)cc1)=N[C@@H](CC(=O)OC(C)(C)C)c1nnc(C)n1-2 [JQ1] + Cc1nc(Nc2ncc(C(=O)Nc3c(C)cccc3Cl)s2)cc(N2CCN(CCO)CC2)n1 [Dasatinib] (partner 0.075 µM)	0.324
Cc1sc2c(c1C)C(c1ccc(Cl)cc1)=N[C@@H](CC(=O)OC(C)(C)C)c1nnc(C)n1-2 [JQ1] + C[C@@H](Oc1cc(-c2cnn(C3CCNCC3)c2)cnc1N)c1c(Cl)ccc(F)c1Cl [Crizotinib] (partner 1 µM)	0.344

Record request: relative viability value, item Cc1sc2c(c1C)C(c1ccc(Cl)cc1)=N[C@@H](CC(=O)OC(C)(C)C)c1nnc(C)n1-2 [JQ1] + CS(=O)(=O)N1CCN(Cc2cc3nc(-c4cccc5[nH]ncc45)nc(N4CCOCC4)c3s2)CC1 [Pictilisib] (partner 1 µM) 0.384

What relative viability value was documented for this molecule, Cc1sc2c(c1C)C(c1ccc(Cl)cc1)=N[C@@H](CC(=O)OC(C)(C)C)c1nnc(C)n1-2 [JQ1] + CC1(C)CCC(c2ccc(Cl)cc2)=C(CN2CCN(c3ccc(C(=O)NS(=O)(=O)c4ccc(N[C@H](CCN5CCOCC5)CSc5ccccc5)c(S(=O)(=O)C(F)(F)F)c4)cc3)CC2)C1 [Navitoclax] (partner 0.5 µM) ? 0.502

====

- System: NCI-H2126
- procedure.details: relative viability (nuclei count vs DMSO), 5 days (fraction); higher = more cells survive
- condition.context: first compound 158.11 µM
Reported relative viability values are given for each entry in this list.
Keep the answer to the number alone.

O=C(O)CCCCC(CCSCc1ccccc1)SCc1ccccc1 (centres undefined) [CPI-613] + Cc1cc(Nc2cc(N3CCN(C)CC3)nc(Sc3ccc(NC(=O)C4CC4)cc3)n2)n[nH]1 [Tozasertib] (partner 0.1 µM)	0.281

Would you kindly share the measured relative viability for O=C(O)CCCCC(CCSCc1ccccc1)SCc1ccccc1 (centres undefined) [CPI-613] + Nc1ncn([C@H]2C[C@H](O)[C@@H](CO)O2)c(=O)n1 [Decitabine] (partner 2 µM) ? 0.188

// lookup relative viability for O=C(O)CCCCC(CCSCc1ccccc1)SCc1ccccc1 (centres undefined) [CPI-613] + CCNC(=O)c1noc(-c2cc(C(C)C)c(O)cc2O)c1-c1ccc(CN2CCOCC2)cc1 [Luminespib] (partner 0.01 µM) 0.223

Entry O=C(O)CCCCC(CCSCc1ccccc1)SCc1ccccc1 (centres undefined) [CPI-613] + CC(=O)Nc1cccc(-n2c(=O)n(C3CC3)c(=O)c3c(Nc4ccc(I)cc4F)n(C)c(=O)c(C)c32)c1 [Trametinib] (partner 0.02 µM) : reported relative viability = ? 0.232

Where do these numbers come from? They come from the supplement of paper PMC10307832.
